target: Human MIF (MIF tautomerase) (Homo sapiens, UniProt P14174); construct: purchased ProSpec; test: MIF Tautomerase Inhibitory Assay with L-Dopachrome Methyl Ester; type: biochemical; conditions: relative potency class, MIF tautomerase inhibition; L-dopachrome methyl ester substrate, pH 7.34, no pre-incubation; read-out: IC50
readout: IC50

Name the reported IC50 value associated with the compound CC(N[C@@H](C)C(=O)O)C1CCC(CN2Cc3ccc(O)c(F)c3C2=O)CC1 (stereo partly shown)
< 1 µM

* * *

Target: Human MIF (MIF tautomerase) (Homo sapiens, UniProt P14174)
Construct: purchased ProSpec
Sequence (P14174 2-115 limits assumed): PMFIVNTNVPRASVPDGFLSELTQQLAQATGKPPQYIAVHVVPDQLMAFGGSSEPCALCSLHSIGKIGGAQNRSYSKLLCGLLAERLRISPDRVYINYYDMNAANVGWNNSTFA
Test: MIF Tautomerase Inhibitory Assay with L-Dopachrome Methyl Ester
Format: biochemical
Conditions: relative potency class, MIF tautomerase inhibition; L-dopachrome methyl ester substrate, pH 7.34, no pre-incubation; read-out: IC50
Experimental: MIF Tautomerase Inhibitory Assay with L-Dopachrome Methyl Ester Assay Method (pH 7.34, 0.017-0.033% DMSO, 0.034% EtOH): A fresh stock solution of L-dopachrome methyl ester in MeOH was prepared at 55-65 mM through oxidation of L-3,4-dihydroxyphenylalanine methyl ester hydrochloride with sodium periodate according to the procedure described in WO9729635A1. […] The absorbance (A1) at 475 nm was then recorded for each sample every 2 s for 3 min. […]
pIC50: −log10 of the molar value.
// reported pIC50 per item

Here are 3 molecules together with their reported answers.
INSERT INTO measurements (molecule, datavalue) VALUES
  ('O=C1c2cc(O)ccc2CN1C[C@H]1CC[C@H](COC2CCCCC2)CC1', '5.30 to 6.00'),
  ('O=C1c2c(ccc(O)c2F)CN1C[C@H]1CC[C@H](CO)CC1', '> 6.00'),
  ('CC(Oc1cccc(F)c1)[C@H]1CC[C@H](CN2Cc3cc(F)c(O)c(F)c3C2=O)CC1 (some centres unmarked)', '> 6.00');

For Human MIF (MIF tautomerase) (Homo sapiens, UniProt P14174), provide pIC50 of CC(C)(O)[C@H]1CC[C@H](CN2Cc3ccc(O)cc3C2=O)CC1 please.
> 6.00

Lab note: need pIC50 with Human MIF (MIF tautomerase) (Homo sapiens, UniProt P14174) for entry CC(N[C@@H](C(=O)O)C(C)C)C1CCC(CN2Cc3ccc(O)c(F)c3C2=O)CC1 (some centres unmarked) , please look it up.
> 6.00
